STUDY TARGET: CALRins5 (mutant calreticulin, 5 base pair insertion, Type 2) expressed with MPL on engineered cancer cells (UniProt P27797)
Sequence (P27797 other isoform, or with tags, fused parts or gaps mutant limits assumed): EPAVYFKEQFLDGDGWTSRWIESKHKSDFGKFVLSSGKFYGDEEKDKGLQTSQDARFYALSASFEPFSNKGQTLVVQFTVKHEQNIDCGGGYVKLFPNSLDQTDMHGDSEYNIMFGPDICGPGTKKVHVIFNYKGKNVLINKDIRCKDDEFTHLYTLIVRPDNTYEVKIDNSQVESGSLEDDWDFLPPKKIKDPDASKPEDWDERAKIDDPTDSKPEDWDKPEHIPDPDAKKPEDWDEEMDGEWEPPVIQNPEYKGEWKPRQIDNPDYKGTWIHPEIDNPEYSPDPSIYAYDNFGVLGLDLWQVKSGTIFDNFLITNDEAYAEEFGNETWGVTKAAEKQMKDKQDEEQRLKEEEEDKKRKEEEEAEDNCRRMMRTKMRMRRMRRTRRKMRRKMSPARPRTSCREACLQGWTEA
ASSAY DETAILS: cell-based or functional assay
List of Cytotoxicity EC50, OCI-M2 MPL CALRins5 cells values.
Provide only the numeric value, understood in µg/mL.

// solved cases for Cytotoxicity EC50, OCI-M2 MPL CALRins5 cells follow
binder="CALRB114 (MP1001 Fab x CD3W245-HL-scFv, high affinity) (bispecific antibody, part only; not given: CD3 scFv arm and IgG1 constant regions, V domains shown, not shown: another chain or arm of the molecule; a dimerising Fc or GST; small tags and cut ends) VH: QEQLKESGGRLVTPGTPLTLTCAVSGFSLDIYGMSWVRQAPGKGLEWIGIIYIEGITYYANWAKGRFTISKTSSTTLELKMTSLTTEDTAMYFCVAGVGRIWGPGTLVTVSS VL: YVMMTQTPSSVSAAVGGTVTINCQASQSLYNNNNLAWFQQKPGQPPKRLIYPASTLASGVSSRFKGSGSGTQFTLTISDVQSDDAATYFCLGEFSCSSADCYAFGGGTEVVVK" experimental_value=0.0235
binder="CALRB115 (MP1004 Fab x CD3W245-HL-scFv, high affinity) (bispecific antibody, part only; not given: anti-CD3 scFv arm, constant regions, V domains shown, not shown: another chain or arm of the molecule; a dimerising Fc or GST; small tags and cut ends) VH: QEQLEESGGRLVTPGTPLTLTCKVSGIDLSNNAISWVRQAPGKGLEYIGVIGNTGDTYYASWAKGRFTISKTSSTTVDLKMTSLTTEDTATYFCVRGPPSYSNSVKNIWGPGTLVTISS VL: DPMLTQTPSSVSAAVGGTVTINCQSSQSVYNNNWLSWLQQKPGQPPNRLIYDASKLESGVPSRFSGSGSGTQFTLTISGVQSDDAATYYCAGGFTGNVYTFGGGTEVVVK" experimental_value=0.0431

Here is the next item to consider.
Query: Recall and state the measured Cytotoxicity EC50, OCI-M2 MPL CALRins5 cells for CALRB76 (MP1007 Fab x CD3W245-LH-scFv, medium affinity) (bispecific antibody, part only; not given: CD3 scFv arm and IgG1 constant regions, V domains shown, not shown: another chain or arm of the molecule; a dimerising Fc or GST; small tags and cut ends) VL: DPMLTQTPSSVSAAVGGTVTIGCQSSQSVYDNNWLSWYQQKPGQPPNRLIYDASKLASGVPSRFSGSGSGTQFTLTISGVKSDDAATYYCAGGYTGNVYSFGGGTMVEIK VH: QQLEESGGRLVAPGTPLRLTCTVSGIDLSNNAVSWVRQAPGKGLEYIGVIGNTGTTYYANWAKGRFTISKTSSTTVDLKMTSLTTDDTATYFCVRGPPSYSNSVRNIWGPGTLVTVSS .
Reply: 0.189
